B1: Histone H1t, residues 44 to 112; numbered along this chain, P22492 (parent)
chain: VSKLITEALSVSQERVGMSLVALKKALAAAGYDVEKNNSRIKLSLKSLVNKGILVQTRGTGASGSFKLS

# Variants of: B1
# Assay: abundance fitness (aPCA) (normalised: wild type 0, dead -1); higher = more abundant; growth selection in yeast, the domain comes from the species named
# Stated Conditions: Homo sapiens
Listing of recorded abundance fitness by entry.
Give a plain numeric answer without units written out.

// abundance fitness lookup, variant = G59R , result: -0.146

Looking up K46P , I found its abundance fitness recorded as -0.841

Kindly note the recorded abundance fitness for L68K , which is -0.064

Query A22K yields abundance fitness of -0.192

response.value for S44F (field: abundance fitness) = -0.298

Looking up L54S , I found its abundance fitness recorded as -0.047

Form: variant = L48G ; abundance fitness = -0.894

Just so you know, measured abundance fitness for S44E came out at 0.175

More entries:
The measured abundance fitness associated with L48Q reads -0.643

Field abundance fitness (entry E35S ) reads -0.134

Data point: N38K ; abundance fitness = -0.124

Ref: the Human Domainome abundance scans (Beltran et al. 2025)
